The measured values listed here are drawn from ChEMBL document CHEMBL1122079.

Tested on: Felis catus
assayNotes: Control blood pressure in normotensive anesthetized cat at dose 10 mg/Kg iv
observedProperty: control BP
Write down the value, and be sure its unit follows.

Sample records with control BP:
1. COC(=O)C(CN)c1c[nH]c2ccc(Cl)cc12.Cl (stereo not drawn): 160 mmHg
2. CCOC(=O)C(CNC(C)=O)c1cn(C(=O)OCC)c2ccccc12 (stereo not drawn): 135 mmHg
3. NCC(c1nnn[nH]1)c1c[nH]c2ccccc12 (stereo not drawn): 155 mmHg
4. NCC(CC(=O)O)c1c[nH]c2ccccc12 (stereo not drawn): 152 mmHg
5. COC(=O)C(CN)c1c[nH]c2ccc(Br)cc12.Cl (stereo not drawn): 125 mmHg
6. CCOC(=O)C(C)(N)Cc1c[nH]c2ccc(O)cc12 (stereo not drawn): 142 mmHg

Noted control BP for CCOC(=O)C(CN)c1c[nH]c2ccc(Br)cc12.Cl (stereo not drawn) , tested on Felis catus: 143 mmHg

# lookup: COC(=O)C(CN(C)C)c1c[nH]c2ccccc12 (stereo not drawn) on Felis catus, control BP = 145 mmHg

Value sought: control BP, system Felis catus, item COC(=O)C(N)Cc1c[nH]c2ccc(OC)cc12 (stereo not drawn) . Result: 136 mmHg

###

System: Felis catus
assayNotes: Control blood pressure in normotensive anesthetized cat at dose 10 mg/Kg iv
control BP values, listed per item
Report the figure in mmHg without appending any unit label.

1) COC(=O)C(CN)c1c[nH]c2ccccc12.Cl (stereo unspecified): 156
2) CCOC(=O)NCC(c1nnn[nH]1)c1c[nH]c2ccccc12 (stereo unspecified): 155
3) CCOC(=O)C(CNC(C)=O)c1cn(C(=O)OCC)c2cc(Cl)ccc12 (stereo unspecified): 165
4) COC(=O)C(CN)c1c(C)[nH]c2ccc(OC)cc12.Cl (stereo unspecified): 164
5) CCOC(=O)CC(c1nnn[nH]1)c1c[nH]c2cc(Cl)ccc12 (stereo unspecified): 175

--- query ---
For CCOC(=O)CC(c1nnn[nH]1)c1c[nH]c2ccccc12 (stereo unspecified) the compound record lists control BP as 168

###

Tested on: Rattus norvegicus
assayNotes: Antihypertensive activity in renal hypertensive rats 1 hr after oral administration (10 mg/Kg)
Format: functional
Categories are assigned from the measured BP using these intervals: low value: < -10 mmHg; medium value: ≥ -10 mmHg and < -5 mmHg; high value: ≥ -5 mmHg

Look over these answered cases.
1) CCOC(=O)C(CNC(C)=O)c1cn(C(=O)OCC)c2cc(Cl)ccc12 (configuration not stated): low value
2) COC(=O)C(CN)c1c[nH]c2ccc(F)cc12.Cl (configuration not stated): low value
3) NCC(C(=O)O)c1c[nH]c2ccccc12 (configuration not stated): medium value
4) COC(=O)C(CN(C)C)c1c[nH]c2ccccc12 (configuration not stated): high value
5) COC(=O)C(CN)c1c[nH]c2ccccc12.Cl (configuration not stated): medium value

Ask | Which BP category applies to NCC(CC(=O)O)c1c[nH]c2cc(Cl)ccc12 (configuration not stated) here?
Reply | high value

Ask | Which bin should I file COc1ccc2[nH]cc(C(CN)CO)c2c1.O=C(O)C(=O)O (configuration not stated) under?
Reply | low value

###

Tested on: Felis catus
assayNotes: Control blood pressure in normotensive anesthetized cat at dose 10 mg/Kg iv
observedProperty: control BP (mmHg)
// units = mmHg; emit number, no label

These solved cases illustrate the format of a correct answer.
1) COC(=O)C(CN)c1c[nH]c2ccc(OC)cc12.Cl (centres undefined) [INDORENATE HYDROCHLORIDE]: 162
2) COC(=O)CC(CN)c1c[nH]c2cc(Cl)ccc12 (centres undefined): 158

Next:
Lab note: COC(=O)C(CN)c1c[nH]c2cc(OC)c(OC)cc12.Cl (centres undefined) gave control BP of 160

###

System: Rattus norvegicus
assayNotes: Antihypertensive activity in renal hypertensive rats 1 hr after oral administration (10 mg/Kg)
Type: functional
BP values by entry
Give just the numeric value; mmHg need not be written.

Notebook: CCOC(=O)C(CN)c1c[nH]c2ccc(OC)cc12.Cl (stereo not given) , BP read as -5

For CCOC(=O)C(CNC(C)=O)c1cn(C(=O)OCC)c2ccc(OC)cc12 (stereo not given) the compound record lists BP as -15

BP for COC(=O)CC(CN)c1c[nH]c2ccccc12 (stereo not given) is -1

Record summary for COC(=O)C(CN)c1c[nH]c2cc(Cl)ccc12.Cl (stereo not given) : reported BP = -14

Data point: NC(Cc1c[nH]c2ccc(O)cc12)C(=O)O (stereo not given) ; BP = -9

###

Test system: Felis catus
assayNotes: Control blood pressure in normotensive anesthetized cat at dose 10 mg/Kg iv
Listing of entries alongside the reported control BP.
Answer format: numeric, mmHg implied, no suffix.

Example entries and their recorded answers appear below.
1. CCOC(=O)C(N)Cc1c[nH]c2ccc(O)cc12 (stereo unspecified): 156
2. CCOC(=O)CC(c1nnn[nH]1)c1c[nH]c2ccc(OC)cc12 (stereo unspecified): 136
3. CCCOc1ccc2[nH]cc(C(CN)C(=O)OC)c2c1.Cl (stereo unspecified): 150
4. CCOC(=O)CC(c1nnn[nH]1)c1c[nH]c2cc(OC)c(OC)cc12 (stereo unspecified): 164
5. NCC(CC(=O)O)c1c[nH]c2cc(Cl)ccc12 (stereo unspecified): 160

Now look at this entry.
// assay Felis catus, entry COc1ccc2[nH]cc(C(CN)C(=O)O)c2c1 (stereo unspecified) , control BP value = 142
